These measurements were taken from the supplement of paper PMC10883282.

system: A204; assay: relative viability vs DMSO control (72 h) (fraction); higher = more viable cells; conditions: 0.01372 µM
Give relative viability for every item shown.
The answer should be a number; do not append a unit.

Return relative viability measured with A204 given this molecule: "Cn1cc(-c2cc3c(N4CCN(c5ncc([C@@](C)(N)c6ccc(F)cc6)cn5)CC4)ncnn3c2)cn1" 1.02

Also check "Cc1cc(C)c(/C=C2\C(=O)Nc3ccccc32)[nH]1" 0.977

Can you check "CC(C)(C)c1cc(NC(=O)Nc2ccc(-c3cn4c(n3)sc3cc(OCCN5CCOCC5)ccc34)cc2)no1" next? 1.07

Then this molecule: "C[C@@H]1COCCN1c1cc(-c2ccnn2C)c2ccnc(-c3ccn[nH]3)c2n1" 1.03

// query: "CC(C)N1CCN(Cc2cnc(-c3cc(-c4cccc5[nH]ccc45)cc4[nH]ncc34)o2)CC1" 0.97

Next molecule up: "Cc1ccc(F)c(NC(=O)Nc2ccc(-c3cccc4[nH]nc(N)c34)cc2)c1" 1.06

Note, next up: "C=CC(=O)N1CCC([C@@H]2CCNc3c(C(N)=O)c(-c4ccc(Oc5ccccc5)cc4)nn32)CC1" 1.01

###

Task for the reader: assign each of the following molecules its reported relative viability.
tested on: SW684; experiment: relative viability vs DMSO control (72 h) (fraction); higher = more viable cells; conditions: 1.111 µM
Structures can show the parent of a compound that is named as a salt.
The answer should be a number; do not append a unit.

Please look up its relative viability: "C[C@@H]1COCCN1c1cc(-c2ccnn2C)c2ccnc(-c3ccn[nH]3)c2n1" 0.719

Try this molecule too: "Cc1cc(C)c(/C=C2\C(=O)Nc3ccccc32)[nH]1" 0.932

Now try "Nc1cc(C(F)(F)F)c(-c2cc(N3CCOCC3)nc(N3CCOCC3)n2)cn1" . 0.599

Would you kindly repeat that for "Cc1cc(Nc2ncnc3ccc(NC4=NC(C)(C)CO4)cc23)ccc1Oc1ccn2ncnc2c1" ? 1.14

Thanks! And "CC[C@H](Nc1ncnc2[nH]cnc12)c1nc2cccc(F)c2c(=O)n1-c1ccccc1" ? 0.658

Would you kindly repeat that for "C=CC(=O)N1CCC([C@@H]2CCNc3c(C(N)=O)c(-c4ccc(Oc5ccccc5)cc4)nn32)CC1" ? 0.985

And for COc1cccc2c1C(=O)c1c(O)c3c(c(O)c1C2=O)C[C@@](O)(C(=O)CO)C[C@@H]3O[C@H]1C[C@H](N)[C@H](O)[C@H](C)O1 [Doxorubicin Hydrochloride] ? 0.813

Next up: "CC(C)N1CCN(Cc2cnc(-c3cc(-c4cccc5[nH]ccc45)cc4[nH]ncc34)o2)CC1" 0.541

###

test system: HS729; assay: relative viability vs DMSO control (72 h) (fraction); higher = more viable cells; conditions: 0.00051 µM
METRIC_NAME: relative viability

Please give the measured relative viability for this molecule: CCN1CCN(Cc2ccc(Nc3ncc(F)c(-c4cc(F)c5nc(C)n(C(C)C)c5c4)n3)nc2)CC1 [Abemaciclib] 0.923

What about COc1c(OCCCN2CCOCC2)ccc2c1N=C(NC(=O)c1cnc(N)nc1)N1CCN=C21 [Copanlisib] ? 0.906

Please do the same for Nc1cc(C(F)(F)F)c(-c2cc(N3CCOCC3)nc(N3CCOCC3)n2)cn1 [Buparlisib] as well. 0.95

Moving on to COc1cc2/c(=N/c3ccc(Br)cc3F)nc[nH]c2cc1OCC1CCN(C)CC1 [Vandetanib] 0.896
